- system: HEK293 cells with stable expression of the GRIN1 gene and tetracycline-inducible expression of the GRIN2B gene (NMDA receptor, NR2B) (Homo sapiens, UniProt Q13224)
- Sequence (Q13224 27-1484, other chains not shown): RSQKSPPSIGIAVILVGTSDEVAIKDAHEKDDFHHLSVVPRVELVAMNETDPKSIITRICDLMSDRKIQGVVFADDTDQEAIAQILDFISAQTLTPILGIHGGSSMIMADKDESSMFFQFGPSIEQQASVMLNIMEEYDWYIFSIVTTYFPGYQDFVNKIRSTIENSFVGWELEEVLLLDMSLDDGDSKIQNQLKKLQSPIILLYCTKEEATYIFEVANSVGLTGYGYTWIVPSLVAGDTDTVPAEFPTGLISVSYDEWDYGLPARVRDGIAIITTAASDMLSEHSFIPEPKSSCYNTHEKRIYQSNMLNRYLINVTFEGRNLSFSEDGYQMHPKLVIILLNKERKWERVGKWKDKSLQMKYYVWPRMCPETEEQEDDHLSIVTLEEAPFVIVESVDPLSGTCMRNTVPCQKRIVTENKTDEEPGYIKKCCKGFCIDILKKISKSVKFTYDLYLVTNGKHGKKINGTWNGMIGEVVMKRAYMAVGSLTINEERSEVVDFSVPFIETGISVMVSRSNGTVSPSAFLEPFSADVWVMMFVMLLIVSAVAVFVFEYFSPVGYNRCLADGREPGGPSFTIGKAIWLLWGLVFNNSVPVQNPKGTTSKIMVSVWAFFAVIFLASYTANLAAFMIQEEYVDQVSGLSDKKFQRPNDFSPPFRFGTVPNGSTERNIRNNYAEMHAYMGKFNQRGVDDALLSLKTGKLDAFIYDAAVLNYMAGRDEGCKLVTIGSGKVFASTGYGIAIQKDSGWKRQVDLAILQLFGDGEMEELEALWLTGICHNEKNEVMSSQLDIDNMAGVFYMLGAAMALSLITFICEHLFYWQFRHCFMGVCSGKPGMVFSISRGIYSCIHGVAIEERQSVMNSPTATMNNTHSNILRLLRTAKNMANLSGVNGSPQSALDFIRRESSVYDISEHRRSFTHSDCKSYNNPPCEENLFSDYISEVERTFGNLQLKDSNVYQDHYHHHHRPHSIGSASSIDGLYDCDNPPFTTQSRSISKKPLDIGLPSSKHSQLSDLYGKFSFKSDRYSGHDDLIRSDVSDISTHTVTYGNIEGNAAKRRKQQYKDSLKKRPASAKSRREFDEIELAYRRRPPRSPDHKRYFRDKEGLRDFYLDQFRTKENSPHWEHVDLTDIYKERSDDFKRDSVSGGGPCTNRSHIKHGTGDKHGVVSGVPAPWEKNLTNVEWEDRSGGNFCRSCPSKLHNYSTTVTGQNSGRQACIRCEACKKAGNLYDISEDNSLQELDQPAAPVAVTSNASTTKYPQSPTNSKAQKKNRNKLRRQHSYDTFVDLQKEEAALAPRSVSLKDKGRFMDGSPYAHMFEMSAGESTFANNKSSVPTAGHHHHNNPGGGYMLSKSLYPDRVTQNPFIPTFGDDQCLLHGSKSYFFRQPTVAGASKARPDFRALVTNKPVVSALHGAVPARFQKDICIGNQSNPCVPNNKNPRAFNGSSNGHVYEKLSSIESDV
- assay text: Fluo-8 Ca2+ flux assay: reversal of Ro 25-6981-mediated suppression of the Ca2+ response to co-agonist (glutamate/glycine)
- Type: cell-based
- measurement conditions: reversal of the Ro 25-6981 suppression of the Ca2+ response to co-agonist (glutamate/glycine)

molecule | Response Recovered (%)
O=C(Cn1ccc2ccc(-c3ccc(Cl)c(C(F)(F)F)c3)cc2c1=O)N1CCC(F)C1 (stereo not shown) [Example 311] | 6
CC1(F)CN(C(=O)Cn2ccc3c(c(-c4cnc(Cl)c(Cl)c4)cn3C3CC3)c2=O)C1 [Example 289] | 120
O=C(Cn1cnc2csc(-c3ccc(F)c(Cl)c3)c2c1=O)N1CCCC1 [Example 359] | 35
CC1CN(C(=O)Cn2ccc3scc(-c4ccc(Cl)c(Cl)c4)c3c2=O)C1 [Example 59] | 110

====

- system: HEK293 cells with stable expression of the GRIN1 gene and tetracycline-inducible expression of the GRIN2B gene (NMDA receptor, NR2B) (Homo sapiens, UniProt Q13224)
- assay text: Fluo-8 Ca2+ flux assay: reversal of Ro 25-6981-mediated suppression of the Ca2+ response to co-agonist (glutamate/glycine)
- Format: cell-based
- measurement conditions: reversal of the Ro 25-6981 suppression of the Ca2+ response to co-agonist (glutamate/glycine)
Form field: Response Recovered (%) (one value per entry).
property measured: Response Recovered (%)

compound | property measured | unit info | readout number
CCC1(F)CN(C(=O)Cn2cc(C)n3ccc(-c4cnc(Cl)c(Cl)c4)c3c2=O)C1 [Example 422] | Response Recovered (%) | % | 29
COCCn1cc(-c2ccc(Cl)c(C(F)(F)F)c2)c2c(=O)n(CC(=O)N3CCCC3)cnc21 [Example 185] | Response Recovered (%) | % | 76
Cn1cc(-n2cc(-c3ccc(F)c(Cl)c3)c3c(=O)n(CC(=O)N4CCC(F)C4)ccc32)cn1 (centres unmarked) [Example 235] | Response Recovered (%) | % | 40
O=C(Cn1cc(-c2ccncc2)c2scc(-c3ccc(Cl)c(C(F)(F)F)c3)c2c1=O)N1CCCC1 [Example 103] | Response Recovered (%) | % | 32
O=C(Cn1ccc2[nH]cc(-c3ccc(F)c(Cl)c3)c2c1=O)N1CC(F)(F)C1 [Example 218] | Response Recovered (%) | % | 71
Cc1cn(CC(=O)N2CCC(F)C2)c(=O)c2c(-c3ccc(Cl)c(Cl)c3)ccn12 (centres unmarked) [Example 413] | Response Recovered (%) | % | 43
CC1(F)CN(C(=O)Cn2ccn3ccc(-c4ccc(F)c(Cl)c4)c3c2=O)C1 [Example 397] | Response Recovered (%) | % | 140
O=C(Cn1nnc2scc(-c3ccc(F)c(Cl)c3)c2c1=O)N1CCCC1 [Example 330] | Response Recovered (%) | % | 6

====

- system: HEK293 cells with stable expression of the GRIN1 gene and tetracycline-inducible expression of the GRIN2B gene (NMDA receptor, NR2B) (Homo sapiens)
- assay text: Fluo-8 Ca2+ flux assay: reversal of Ro 25-6981-mediated suppression of the Ca2+ response to co-agonist (glutamate/glycine)
- Format: cell-based
- measurement conditions: reversal of the Ro 25-6981 suppression of the Ca2+ response to co-agonist (glutamate/glycine)
Note to self: use met only for Response Recovered (%) readings below 40%; a reading exactly at 40% still gets not met.

compound | category label
O=C(Cn1cnc2csc(-c3ccc(Cl)cc3)c2c1=O)NC1CCC1 [Example 347] | met
C[Si](C)(C)CCOCn1cc(-c2ccc(F)c(Cl)c2)c2c(=O)n(CC(=O)N3CC(F)(F)C3)ccc21 [Example 207] | not met
C[Si](C)(C)CCOCn1cc(-c2ccc(Cl)c(F)c2)c2c(=O)n(CC(=O)N3CCCC3)ccc21 [Example 201] | not met
O=C(Cn1cnc2csc(-c3ccc(Cl)cc3)c2c1=O)N1CCOCC1 [Example 354] | met
O=C(Cn1ccc2scc(-c3cnc(Cl)c(C(F)(F)F)c3)c2c1=O)N1CCC(F)C1 (centres unmarked) [Example 25] | met
Cc1nnc(-n2cc(-c3ccc(F)c(C(F)(F)F)c3)c3c(=O)n(CC(=O)N4CCC(F)C4)ccc32)o1 (centres unmarked) [Example 263] | not met
N#Cc1cn(CC(=O)N2CCCC2)c(=O)c2c(-c3ccc(Cl)c(C(F)(F)F)c3)csc12 [Example 99] | met
O=C(Cn1ccc2cccc(-c3ccc(Cl)c(Cl)c3)c2c1=O)N1CCCC1 [Example 308] | not met

====

- system: HEK293 cells with stable expression of the GRIN1 gene and tetracycline-inducible expression of the GRIN2B gene (NMDA receptor, NR2B) (Homo sapiens)
- assay text: Fluo-8 Ca2+ flux assay: reversal of Ro 25-6981-mediated suppression of the Ca2+ response to co-agonist (glutamate/glycine)
- Type: cell-based
- measurement conditions: reversal of the Ro 25-6981 suppression of the Ca2+ response to co-agonist (glutamate/glycine)
Reported Response Recovered (%) by item:

compound | unit info | Response Recovered (%)
COCc1cn(CC(=O)N2CCC(F)C2)c(=O)c2c(-c3ccc(Cl)c(Cl)c3)csc12 (centres unmarked) | % | 20
CC1(F)CN(C(=O)Cn2ccn3c(C4CC4)nc(-c4ccc(F)c(C(F)(F)F)c4)c3c2=O)C1 | % | 79
O=C(Cn1cnc2csc(-c3ccc(Cl)cc3)c2c1=O)N1CCC1 | % | 3
O=C(Cn1ccc2scc(-c3ccc(Cl)c(C(F)(F)F)c3)c2c1=O)N1CC[C@@H](F)C1 | % | 99
CC(C)(O)Cn1cc(-c2ccc(F)c(Cl)c2)c2c(=O)n(CC(=O)N3CCC(F)C3)ccc21 (centres unmarked) | % | 35
Cc1cn(CC(=O)N2CC(F)(CF)C2)c(=O)c2c(-c3cnc(Cl)c(Cl)c3)ccn12 | % | 92
O=C(Cn1ccc2scc(-c3ccc(Cl)c(Cl)c3)c2c1=O)N1CC2(COC2)C1 | % | 13
CC1(F)CN(C(=O)Cn2ccc3scc(-c4ccc(F)c(F)c4)c3c2=O)C1 | % | 41

====

- system: HEK293 cells with stable expression of the GRIN1 gene and tetracycline-inducible expression of the GRIN2B gene (NMDA receptor, NR2B) (Homo sapiens)
- assay text: Fluo-8 Ca2+ flux assay: reversal of Ro 25-6981-mediated suppression of the Ca2+ response to co-agonist (glutamate/glycine)
- Type: cell-based
- measurement conditions: reversal of the Ro 25-6981 suppression of the Ca2+ response to co-agonist (glutamate/glycine)
Below: a set of entries, each annotated with reported Response Recovered (%).
property measured: Response Recovered (%)

molecule | result
CN(C)Cc1cn(CC(=O)N2CCC(F)C2)c(=O)c2c(-c3ccc(F)c(C(F)(F)F)c3)csc12 (stereo not shown) [Example 116] | 70%
O=C(Cn1ccn2c(Br)cc(-c3ccc(F)c(C(F)(F)F)c3)c2c1=O)N1CCC(F)C1 (stereo not shown) [Example 423] | 72%
O=C(Cn1ccc2scc(-c3ccc(Cl)c(C(F)(F)F)c3)c2c1=O)N1CC(F)C1 [Example 34] | 79%
Cc1cn(CC(=O)N2CCCC2)c(=O)c2c(-c3ccc(F)c(C(F)(F)F)c3)csc12 [Example 107] | 63%
Cn1cc(-c2ccc(Cl)c(C(F)(F)F)c2)c2c(=O)n(CC(=O)N3CCCC3)cnc21 [Example 158] | 72%
CC(C)(C)OC(=O)N1CCC12CN(C(=O)Cn1ccc3scc(-c4ccc(F)c(Cl)c4)c3c1=O)C2 [Example 79] | 18%
O=C(Cn1cnc2cccc(-c3ccc(Cl)cc3)c2c1=O)N1CCCC1C(F)(F)F (stereo not shown) [Example 297] | 3%
O=C(Cn1cnc2[nH]cc(-c3cnc(Cl)c(Cl)c3)c2c1=O)N1CCC(F)C1 (stereo not shown) [Example 180] | 15%
O=C(Cn1cnc2[nH]cc(-c3ccc(Cl)c(F)c3)c2c1=O)N1CCCC1 [Example 164] | 48%
O=C(Cn1cnc2[nH]cc(-c3ccc(Cl)c(Cl)c3)c2c1=O)N1CCC(F)C1 (stereo not shown) [Example 175] | 77%
O=C(Cn1ccc2scc(-c3ccc(F)c(Cl)c3)c2c1=O)N1CC[C@@H](F)C1 [Example 41] | 77%
O=C(CCn1ccc2scc(-c3ccc(Cl)c(C(F)(F)F)c3)c2c1=O)N1CCC(F)C1 (stereo not shown) [Example 24] | 3%
COCCn1cc(-c2ccc(F)c(C(F)(F)F)c2)c2c(=O)n(CC(=O)N3CCC(F)C3)cnc21 (stereo not shown) [Example 188] | 53%
O=C(Cn1cnc2c(c(-c3ccc(F)c(C(F)(F)F)c3)cn2CCO)c1=O)N1CCC(F)C1 (stereo not shown) [Example 196] | 34%
O=C(Cn1cnc2[nH]cc(-c3ccc(Cl)c(C(F)(F)F)c3)c2c1=O)N1CCC(F)C1 (stereo not shown) [Example 177] | 85%
O=C(Cn1ccn2ncc(-c3ccc(F)c(C(F)(F)F)c3)c2c1=O)N1CC(F)C1 [Example 322] | 33%
